Source listed as patent US20250228835A1.

Target: UniProtKB P21439
Sequence (P21439 whole entry): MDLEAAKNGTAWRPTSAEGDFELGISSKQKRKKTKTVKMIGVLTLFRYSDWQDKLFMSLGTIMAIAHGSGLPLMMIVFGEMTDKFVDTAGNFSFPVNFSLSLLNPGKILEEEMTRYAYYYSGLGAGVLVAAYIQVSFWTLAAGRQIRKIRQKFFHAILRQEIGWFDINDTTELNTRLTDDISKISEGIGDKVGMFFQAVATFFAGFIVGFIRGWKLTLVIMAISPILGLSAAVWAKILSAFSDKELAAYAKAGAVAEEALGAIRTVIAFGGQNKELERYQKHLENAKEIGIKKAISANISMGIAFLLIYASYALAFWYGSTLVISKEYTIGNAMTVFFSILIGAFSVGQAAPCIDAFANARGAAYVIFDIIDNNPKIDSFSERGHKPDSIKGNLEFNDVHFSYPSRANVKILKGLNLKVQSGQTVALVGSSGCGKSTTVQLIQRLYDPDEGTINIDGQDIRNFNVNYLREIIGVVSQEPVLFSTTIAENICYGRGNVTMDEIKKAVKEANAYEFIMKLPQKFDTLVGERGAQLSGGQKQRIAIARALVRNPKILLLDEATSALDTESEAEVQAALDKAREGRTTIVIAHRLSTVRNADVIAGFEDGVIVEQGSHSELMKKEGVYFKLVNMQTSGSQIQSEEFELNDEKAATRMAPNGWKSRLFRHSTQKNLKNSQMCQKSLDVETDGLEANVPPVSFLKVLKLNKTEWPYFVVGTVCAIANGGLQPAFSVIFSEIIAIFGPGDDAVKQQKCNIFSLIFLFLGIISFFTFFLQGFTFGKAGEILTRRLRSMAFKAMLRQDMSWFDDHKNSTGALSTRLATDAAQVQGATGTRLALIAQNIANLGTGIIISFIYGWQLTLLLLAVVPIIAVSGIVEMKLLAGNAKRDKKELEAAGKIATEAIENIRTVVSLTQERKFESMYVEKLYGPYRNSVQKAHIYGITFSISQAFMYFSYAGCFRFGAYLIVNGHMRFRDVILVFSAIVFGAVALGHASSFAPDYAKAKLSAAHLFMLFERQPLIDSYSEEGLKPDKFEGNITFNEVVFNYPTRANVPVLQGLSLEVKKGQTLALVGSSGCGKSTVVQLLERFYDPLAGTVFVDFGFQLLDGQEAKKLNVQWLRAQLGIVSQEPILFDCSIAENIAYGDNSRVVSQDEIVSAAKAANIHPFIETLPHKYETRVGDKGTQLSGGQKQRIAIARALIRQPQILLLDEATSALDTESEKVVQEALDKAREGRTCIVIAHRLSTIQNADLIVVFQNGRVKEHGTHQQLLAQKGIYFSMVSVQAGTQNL
Test: ABCB4 WT assay: HiBit protein expression
Conditions: HEK-293 cells stably expressing HiBit-tagged ABCB4 WT; 24 h treatment; top concentration 30 μM; read-out: ABCB4 WT EC50, Emax
pEC50: −log10 of the molar value.
experimental.endpoint: pEC50

Examples with answers:
Look up pEC50 with UniProtKB P21439 for this compound: Cc1cc(C)c(Oc2nc(N3CCN(C(=O)N(C)C)CC3)ccc2NS(C)(=O)=O)c(C)c1 [Compound I-33]
4.60 to 5.00

Try Cc1cc(C)c(Oc2nc(-c3cncc(Cl)c3)ccc2NS(C)(=O)=O)c(C)n1 [Compound I-46] next.
> 4.60

Try Cc1cc(C)c(Oc2nc(-c3cncc(Cl)c3)ccc2NS(=O)(=O)Cc2ccccn2)c(C)c1 [Compound I-62] next.
≤ 4.60

Here is the next item to consider.
Look up pEC50 with UniProtKB P21439 for this compound: Cc1cc(C)c(Oc2nc(-n3cnc(C#N)c3)ccc2NS(C)(=O)=O)c(C)c1 [Compound I-273]
> 4.60
